target.of.assay: thymidylate synthase (TS) (Homo sapiens)
Construct: The principle of this assay is the measurement of TS enzymatic activity in intact cells; endogenous in cells; host or cells: colon cancer cell lines (WiDr, WiDr-LF, SW1398, LS174T and others)
Sequence (P04818 2-313 limits assumed): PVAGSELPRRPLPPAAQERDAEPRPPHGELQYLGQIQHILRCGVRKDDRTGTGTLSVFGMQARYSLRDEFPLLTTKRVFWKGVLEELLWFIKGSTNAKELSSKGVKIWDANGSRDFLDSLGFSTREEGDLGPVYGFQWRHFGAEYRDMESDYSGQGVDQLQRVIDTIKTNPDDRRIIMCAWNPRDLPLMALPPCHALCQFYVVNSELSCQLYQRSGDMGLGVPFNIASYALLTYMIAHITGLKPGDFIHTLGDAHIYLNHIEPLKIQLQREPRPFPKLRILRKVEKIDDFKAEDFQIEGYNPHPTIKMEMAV
protocol.text: TS in situ inhibition assay (TSIA) in colon cancer cells
Type: cell-based
experimental.setup: WiDr-LF, 4 h, 5FU alone
endpoint.label: IC50 (µM)

>>> df
           chemical_smiles  endpoint_label  numeric_result
0  O=c1[nH]cc(F)c(=O)[nH]1            IC50            3.67

====

target.of.assay: folate receptor α (FRα) (Homo sapiens, UniProt P15328)
Construct: endogenous in cells; host or cells: KB cells (FRα++)
Sequence (P15328 25-257): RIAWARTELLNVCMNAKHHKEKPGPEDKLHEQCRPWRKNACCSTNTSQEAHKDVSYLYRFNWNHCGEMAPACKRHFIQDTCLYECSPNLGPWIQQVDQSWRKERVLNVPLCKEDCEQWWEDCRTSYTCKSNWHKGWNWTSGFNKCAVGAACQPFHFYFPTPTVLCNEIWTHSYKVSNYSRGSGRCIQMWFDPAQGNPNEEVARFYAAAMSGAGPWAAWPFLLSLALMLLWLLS
protocol.text: Intact cell competitive binding assay, displacement of [3H]-folic acid from FRα in KB cells
experimental.setup: 100 pmol [3H]-FA, inverse ratio of amount of drug displacing 50% of [3H]-FA, FA set to 1
Relative affinity for FRα by entry:

compound	Relative affinity for FRα
Nc1nc2c(c(=O)[nH]1)N(C=O)[C@H](CNc1ccc(C(=O)N[C@@H](CCC(=O)O)C(=O)O)cc1)CN2	0.016
Nc1nc2c(c(=O)[nH]1)N(C=O)C(CNc1ccc(C(=O)N[C@@H](CCC(=O)O)C(=O)O)cc1)CN2 (stereo partly drawn) [l-LV, 5-formyltetrahydrofolate]	0.073
C#CCC(Cc1cnc2nc(N)nc(N)c2n1)c1ccc(C(=O)N[C@@H](CCC(=O)O)C(=O)O)cc1 (stereo partly shown) [PLX, pralatrexate]	0.0035
Nc1nc2c(c(=O)[nH]1)N(C=O)C(CNc1ccc(C(=O)N[C@@H](CCC(=O)O)C(=O)O)cc1)CN2 (mixture of isomers) [dl-LV]	0.041

====

target.of.assay: reduced folate carrier (RFC/SLC19A1) (Homo sapiens, UniProt P41440)
Construct: CEM-7A cells, which display 30-fold RFC overexpression relative to wild-type CCRF-CEM cells; endogenous in cells
Sequence (P41440 whole entry): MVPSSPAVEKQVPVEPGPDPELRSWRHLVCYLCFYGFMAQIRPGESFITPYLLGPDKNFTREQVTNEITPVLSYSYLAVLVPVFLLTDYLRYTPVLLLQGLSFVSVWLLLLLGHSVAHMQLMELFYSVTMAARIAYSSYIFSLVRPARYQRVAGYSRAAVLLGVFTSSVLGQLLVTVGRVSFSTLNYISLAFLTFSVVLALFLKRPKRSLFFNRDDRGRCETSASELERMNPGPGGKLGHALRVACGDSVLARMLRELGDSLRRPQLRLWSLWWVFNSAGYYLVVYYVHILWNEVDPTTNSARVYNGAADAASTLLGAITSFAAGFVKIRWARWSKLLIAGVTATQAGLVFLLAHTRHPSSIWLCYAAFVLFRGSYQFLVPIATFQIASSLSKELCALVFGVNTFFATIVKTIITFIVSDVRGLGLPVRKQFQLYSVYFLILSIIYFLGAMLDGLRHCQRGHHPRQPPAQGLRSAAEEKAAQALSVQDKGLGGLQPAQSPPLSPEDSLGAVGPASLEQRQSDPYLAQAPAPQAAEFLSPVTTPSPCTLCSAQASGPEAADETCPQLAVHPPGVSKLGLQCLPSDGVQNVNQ
protocol.text: Inhibition of RFC-mediated [3H]-l-LV influx in CEM-7A cells
experimental.setup: 5 µM [3H]-l-LV, 2 min, 37°C, read-out: Concentration for 50% inhibition of [3H]-l-LV influx (RFC)
pIC50: −log10 of the molar value.

compound	pIC50
Nc1nc2c(c(=O)[nH]1)N(C=O)[C@H](CNc1ccc(C(=O)N[C@@H](CCC(=O)O)C(=O)O)cc1)CN2	4.36
Nc1nc2c(c(=O)[nH]1)N(C=O)C(CNc1ccc(C(=O)N[C@@H](CCC(=O)O)C(=O)O)cc1)CN2 (stereo partly drawn) [l-LV, 5-formyltetrahydrofolate]	5.26
Nc1nc2c(c(=O)[nH]1)N(C=O)C(CNc1ccc(C(=O)N[C@@H](CCC(=O)O)C(=O)O)cc1)CN2 (mixture of isomers) [dl-LV]	5.14

====

Tested on: SW1398 cells
protocol.text: Growth inhibition, SRB assay, SW1398
Assay type: cell-based
experimental.setup: Homo sapiens, 72 h, 5-FU + 5 µM d-LV, read-out: IC50, 72 h drug exposure
pIC50: −log10 of the molar value.
endpoint.label: pIC50

>>> df
           chemical_smiles  target_of_assay  numeric_result
0  O=c1[nH]cc(F)c(=O)[nH]1     SW1398 cells            5.62

====

Tested on: SW948 cells
protocol.text: Growth inhibition, SRB assay, SW948
Type: cell-based
experimental.setup: Homo sapiens, SW948, 72 h, 5-FU + 5 µM d-LV, read-out: IC50, 72 h drug exposure
pIC50: −log10 of the molar value.
endpoint.label: pIC50

In [3]: df
Out[3]:
           chemical_smiles  numeric_result
0  O=c1[nH]cc(F)c(=O)[nH]1            5.41

====

Tested on: CaCo2 LF/LV cells
protocol.text: Growth inhibition, SRB assay, CaCo2 LF/LV
Type: cell-based
experimental.setup: Homo sapiens, Caco-2, 72 h, 5-FU + 5 µM d-LV, read-out: IC50, 72 h drug exposure
pIC50: −log10 of the molar value.
endpoint.label: pIC50

In [3]: df
Out[3]:
           chemical_smiles  endpoint_label  numeric_result
0  O=c1[nH]cc(F)c(=O)[nH]1           pIC50            5.71

====

System: H28 cells
protocol.text: Growth inhibition, SRB assay, H28 (MPM)
Format: cell-based, human
experimental.setup: Homo sapiens, NCI-H28, 72 h; H28, SRB, antifolate alone; read-out: IC50, 72 h drug exposure
endpoint.label: IC50 (nM)

>>> print(df.to_string())
                                   compound  numeric_result
0  C#CCC(Cc1cnc2nc(N)nc(N)c2n1)c1ccc(C(=O)N[C@@H](CCC(=O)O)C(=O)O)cc1 (stereo partly drawn) [PLX, pralatrexate]              11
1  Nc1nc2[nH]cc(CCc3ccc(C(=O)N[C@@H](CCC(=O)O)C(=O)O)cc3)c2c(=O)[nH]1 [PMX, pemetrexed]             280
2  Cc1nc2ccc(CN(C)c3ccc(C(=O)N[C@@H](CCC(=O)O)C(=O)O)s3)cc2c(=O)[nH]1 [RTX, raltitrexed]             136

====

target.of.assay: thymidylate synthase (TS) (Homo sapiens)
Construct: The principle of this assay is the measurement of TS enzymatic activity in intact cells; endogenous in cells; host or cells: colon cancer cell lines (WiDr, WiDr-LF, SW1398, LS174T and others)
protocol.text: TS in situ inhibition assay (TSIA) in colon cancer cells
Type: cell-based
experimental.setup: SW1398, 4 h, 5FU alone
endpoint.label: IC50 (µM)

>>> print(df.to_string())
                                   compound                           target_of_assay  numeric_result
0  O=c1[nH]cc(F)c(=O)[nH]1 [5-FU, 5-fluorouracil]  thymidylate synthase (TS) (Homo sapiens)            4.14

====

Test system: H460 cells
protocol.text: Growth inhibition, SRB assay, H460 (NSCLC)
Assay type: cell-based, human
experimental.setup: H460, SRB, antifolate + 5 µM l-LV; read-out: IC50, 72 h drug exposure
Reported IC50 values for a set of molecules
endpoint.label: IC50 (µM)

>>> df
                                   molecule  endpoint_label  numeric_result
0  Cc1nc2ccc(CN(C)c3ccc(C(=O)N[C@@H](CCC(=O)O)C(=O)O)s3)cc2c(=O)[nH]1            IC50            19.8
1  Nc1nc2[nH]cc(CCc3ccc(C(=O)N[C@@H](CCC(=O)O)C(=O)O)cc3)c2c(=O)[nH]1            IC50            52.7
2  C#CCC(Cc1cnc2nc(N)nc(N)c2n1)c1ccc(C(=O)N[C@@H](CCC(=O)O)C(=O)O)cc1 (stereo partly drawn) [PLX, pralatrexate]            IC50            1.45

====

Test system: CHO/C5-PCFT cells
protocol.text: Growth inhibition, SRB assay, CHO/C5-PCFT (PCFT-transfected)
Assay type: cell-based, Chinese hamster
experimental.setup: antifolate + 5 µM l-LV
pIC50: −log10 of the molar value.
endpoint.label: pIC50

                                   compound    target_of_assay  numeric_result
0  C#CCC(Cc1cnc2nc(N)nc(N)c2n1)c1ccc(C(=O)N[C@@H](CCC(=O)O)C(=O)O)cc1 (stereo partly shown) [PLX, pralatrexate]  CHO/C5-PCFT cells            4.06
1  Cc1nc2ccc(CN(C)c3ccc(C(=O)N[C@@H](CCC(=O)O)C(=O)O)s3)cc2c(=O)[nH]1  CHO/C5-PCFT cells            4.28
2  Nc1nc2[nH]cc(CCc3ccc(C(=O)N[C@@H](CCC(=O)O)C(=O)O)cc3)c2c(=O)[nH]1  CHO/C5-PCFT cells            4.31
3  CN(Cc1cnc2nc(N)nc(N)c2n1)c1ccc(C(=O)N[C@@H](CCC(=O)O)C(=O)O)cc1 [MTX, methotrexate]  CHO/C5-PCFT cells            4.39
